Test: Dissociation constant in aqueous DMF.
Format: physicochemical
quantity.measured: pKa
Lab note: jot the number down without any unit.

Example entries and their recorded answers appear below.
Input: What measured pKa goes with CS(=O)(=O)Nc1ccc(Nc2c3ccccc3nc3ccccc23)c(F)c1 ?
Output: 6.62

Input: What measured pKa goes with CC(C)Oc1cc(NS(C)(=O)=O)ccc1N=c1c2ccccc2[nH]c2ccccc12 ?
Output: 7.51

Input: What measured pKa goes with CS(=O)(=O)Nc1ccc(Nc2c3ccccc3nc3ccccc23)c(O)c1 ?
Output: 7.56

Input: Requested read-out: pKa. Entry: CS(=O)(=O)Nc1ccc(Nc2c3ccccc3nc3ccccc23)c(OCCO)c1
Output: 7.53

Continue with the molecule presented below.
Input: Recorded pKa for CCOc1cc(NS(C)(=O)=O)ccc1Nc1c2ccccc2nc2ccccc12 , please?
Output: 7.55

====

Test system: L1210
Experiment: In vitro concentration required to inhibit the growth of L1210 cells in culture by 50% following a 48 hr exposure.
Assay type: functional
Conditions: Mus musculus, L1210, 48 h; read-out: ID50 (the source's name)
pIC50: −log10 of the molar value.
Please enter Fulfilled where pIC50 is greater than or equal to 6, and Not fulfilled where it is lower.

Input: Confirm if pIC50 reported for the molecule CCN(CC)c1cc(NS(C)(=O)=O)ccc1Nc1c2ccccc2nc2ccccc12 is 6 or above.
Output: Not fulfilled

Input: Is it the case that CCCNc1cc(NS(C)(=O)=O)ccc1Nc1c2ccccc2nc2ccccc12 has pIC50 reaching or exceeding 6?
Output: Fulfilled

Input: Given CCCS(=O)(=O)Nc1ccc(Nc2c3ccccc3nc3ccccc23)c(NC)c1 , state whether its pIC50 is at least 6.
Output: Fulfilled

Others:
Input: Is reported pIC50 greater than or equal to 6 here: Cc1cc(NS(C)(=O)=O)ccc1Nc1c2ccccc2nc2ccccc12
Output: Fulfilled

Input: Could you verify whether the entry CCCCCS(=O)(=O)Nc1ccc(Nc2c3ccccc3nc3ccccc23)c(NC)c1 shows pIC50 of no less than 6?
Output: Fulfilled

Input: Assess whether reported pIC50 for CNc1cc(NS(C)(=O)=O)ccc1Nc1c2ccccc2nc2ccccc12 sits at 6 or higher.
Output: Fulfilled

====

Tested on: L1210
Test: In vitro concentration required to inhibit the growth of L1210 cells in culture by 50% following a 48 hr exposure.
Format: functional
Conditions: Mus musculus, L1210, 48 h; read-out: ID50 (the source's name)
quantity.measured: IC50 (nM)
Express it in nM; write the number only.

Answered examples (2):
Input: What value of IC50 has been recorded for this entry: CS(=O)(=O)Nc1ccc(Nc2c3ccccc3nc3ccccc23)cc1
Output: 35

Input: Could you share which IC50 value was measured for CCNc1cc(NS(C)(=O)=O)ccc1Nc1c2ccccc2nc2ccccc12 ?
Output: 229

Consider the additional molecule presented here.
Input: What IC50 value was documented for this molecule, CCCCS(=O)(=O)Nc1ccc(Nc2c3ccccc3nc3ccccc23)c(NC)c1 ?
Output: 102

====

Tested on: Nucleic Acid
Experiment: Binding constant for DNA by ethidium bromide displacement
Format: nucleic-acid assay
Response key: condition met means Log K >= 6; condition not met means Log K < 6.

Consider the worked cases shown below.
Input: Threshold query (Log K >= 6) on CCCS(=O)(=O)Nc1ccc(Nc2c3ccccc3nc3ccccc23)c(NC)c1
Output: condition met

Input: Hi, just wondering whether CS(=O)(=O)Nc1ccc(Nc2c3ccccc3nc3ccccc23)c(N2CCCC2)c1 shows Log K of 6 or higher.
Output: condition not met

Input: Check if Log K >= 6 (inclusive). Item: CCN(CC)c1cc(NS(C)(=O)=O)ccc1Nc1c2ccccc2nc2ccccc12
Output: condition not met

Input: Determine whether this compound has Log K no lower than 6: CS(=O)(=O)Nc1ccc(Nc2c3ccccc3nc3ccccc23)c(NCCO)c1
Output: condition met

Input: For this compound, is measured Log K 6 or higher? CCCNc1cc(NS(C)(=O)=O)ccc1Nc1c2ccccc2nc2ccccc12
Output: condition met

Input: Given CS(=O)(=O)Nc1ccc(Nc2c3ccccc3nc3ccccc23)c(NC2CCCCC2)c1 , state whether its Log K is at least 6.
Output: condition met

Input: Given CCCCCCS(=O)(=O)Nc1ccc(Nc2c3ccccc3nc3ccccc23)c(NC)c1 , state whether its Log K is at least 6.
Output: condition met

Input: Determine whether this compound has Log K no lower than 6: CS(=O)(=O)Nc1ccc(Nc2c3ccccc3nc3ccccc23)c(Cl)c1
Output: condition not met

Further cases:
Input: Hi team, for CS(=O)(=O)Nc1ccc(Nc2c3ccccc3nc3ccccc23)c(O)c1 , is the recorded Log K at or above 6?
Output: condition not met

Input: Textbook exercise: given the entry CS(=O)(=O)Nc1ccc(Nc2c3ccccc3nc3ccccc23)c(F)c1 , state whether its Log K is greater than or equal to 6.
Output: condition not met

Input: Is the recorded value of Log K equal to or greater than 6 for this compound? CC(C)Oc1cc(NS(C)(=O)=O)ccc1N=c1c2ccccc2[nH]c2ccccc12
Output: condition not met

Input: Given CCCCCCCNc1cc(NS(C)(=O)=O)ccc1Nc1c2ccccc2nc2ccccc12 , state whether its Log K is at least 6.
Output: condition met

Input: Does CS(=O)(=O)Nc1ccc(Nc2c3ccccc3nc3ccccc23)c(NCC(O)CO)c1 (stereo not drawn) have a reported Log K of at least 6?
Output: condition met

Input: Decide: is the reported value of Log K for CS(=O)(=O)Nc1ccc(Nc2c3ccccc3nc3ccccc23)c([N+](=O)[O-])c1 equal to or greater than 6?
Output: condition not met
